Provenance of the data: patent US12077503B2

Test system: ryegrass, Italian (Italian ryegrass, Lolium multiflorum)
method: Test A preemergence
Assay type: in vivo
setup conditions: Lolium multiflorum, pre-emergence, 240 h, 125 g ai/ha, preemergence; 0 to 100 scale where 0 is no effect and 100 is complete control; read-out: Ryegrass, Italian plant response rating
Note to self: values exactly at 40% are T. So pest or weed control at 125 g/ha at or above 40% is T, below is F.

• COc1cc([C@H]2CN(C)C(=O)[C@@H]2C(=O)Nc2cccc(F)c2F)cc(C(F)(F)F)c1 = T
• COc1ccc([C@H]2CN(C)C(=O)[C@@H]2C(=O)Nc2cccc(F)c2F)cc1OC = F
• Cc1cc(C)cc([C@H]2CNC(=O)[C@@H]2C(=O)Nc2cccc(F)c2F)c1 = F
• Cc1cc(F)cc([C@H]2CN(C)C(=O)[C@@H]2C(=O)Nc2ccccc2F)c1 = T

Does the reported pest or weed control at 125 g/ha for `CN1CC[C@H](c2cccc(Cl)c2)[C@@H](C(=O)Nc2cccc(F)c2F)C1=O` fall at or above the 40% mark? T
